Tested on: Plasmodium falciparum
Assay: Screen against P. falciparum Asexual Blood Stage (ABS), at 5uM
Type: functional, Dd2
Details: tested at 5 uM
About 2,100 (3.2%) of roughly 65,000 compounds showed an effect of 50% or more. The median lay at about -52%. This excerpt belongs to a sample that is enriched for strong results.
measured attribute: INHIBITION (%)
Please give a number only; it is taken to be in %.

# count of solved cases: 5
| compound | target or test system | unit info | observed value |
| --- | --- | --- | --- |
| Cc1nc(CN2CCCC(NCc3cccc4ccccc34)C2)no1 (stereo unspecified) | Plasmodium falciparum | % | 58.3 |
| NC(=O)C1CCN(c2nccc(-c3c[nH]nc3C3CCCCC3)n2)CC1 | Plasmodium falciparum | % | 16.3 |
| CC(C)Cn1nc(-c2ccc(C(=O)O)cc2)cc1-c1ccc(F)cc1 | Plasmodium falciparum | % | -57.3 |
| CN(Cc1cccnc1)C1CCCN(Cc2noc(C3CC3)n2)C1 (stereo unspecified) | Plasmodium falciparum | % | 52.6 |
| CN1CCCN(c2nccc(-c3cncnc3C3CCCCC3)n2)CC1 | Plasmodium falciparum | % | 61.6 |

Reported INHIBITION for CN(Cc1cnn(C)c1)C1CCCN(Cc2noc(C3CC3)n2)C1 (stereo unspecified) : what is it? -39.7

Reported INHIBITION for Cc1nc(CN2CCCC(N(C)Cc3c(C)noc3C)C2)no1 (stereo unspecified) : what is it? 58.6

Reported INHIBITION for Cc1nc(CN2CCCC(N(C)CCc3ccncc3)C2)no1 (stereo unspecified) : what is it? -138

Reported INHIBITION for Cc1cc(C(=O)N2CCc3nc4sc(C)cc4c(=O)n3CC2)on1 : what is it? -73.5

Reported INHIBITION for Cc1nc(CN2CCCC(NCc3ccc4ccccc4c3)C2)no1 (stereo unspecified) : what is it? -9.17

Reported INHIBITION for COc1ccc(CCN(C)C2CCCN(Cc3noc(C)n3)C2)cc1 (stereo unspecified) : what is it? 60.6

Origin of the recorded values: ChEMBL document CHEMBL4513216
